EC50 values by entry
Test system: Pseudotyped HCV GT1a particles (HCVpp), entry into Huh7-high CD81 cells
Assay: microbe, parasite or virus in culture
Assay type: cell-based, HCV GT1a H77 strain
Details: Hepatitis C virus, 72 h, read-out: HCVpp GT-1a (EC50, μM)
property-measured: EC50 (µM)

>  <mol>
COc1ccc(-c2c(Cl)cc(Nc3n[nH]c(N)n3)cc2Cl)cc1

>  <experimental-result>
0.01

$$$$
>  <mol>
Nc1nc(Nc2cc(Cl)c(-c3ccccc3)c(Cl)c2)n[nH]1

>  <experimental-result>
0.01

$$$$
>  <mol>
Nc1nc(Nc2ccc(-c3ccccc3)cc2)n[nH]1

>  <experimental-result>
25.1

$$$$
>  <mol>
CS(=O)(=O)Cc1ccc(-c2c(Cl)cc(Nc3n[nH]c(N)n3)cc2Cl)cc1

>  <experimental-result>
0.004

$$$$
>  <mol>
CS(=O)(=O)Nc1ccc(-c2c(F)cc(Nc3nc(N)n[nH]3)cc2C(F)(F)F)cc1

>  <experimental-result>
0.061

$$$$
>  <mol>
Nc1nc(Nc2cc(Cl)c(-c3ccccc3F)c(Cl)c2)n[nH]1

>  <experimental-result>
0.005

$$$$
>  <mol>
Nc1nc(Nc2cc(Cl)c(-c3ccc4c(c3)CC(=O)N4)c(Cl)c2)n[nH]1

>  <experimental-result>
0.003

$$$$
>  <mol>
Nc1nc(Nc2ccc(-c3cccc(F)c3)c(Cl)c2)n[nH]1

>  <experimental-result>
0.301

$$$$
>  <mol>
Nc1nc(Nc2cc(Cl)c(-c3ccc(S(=O)(=O)N4CCNCC4)cc3)c(C(F)(F)F)c2)n[nH]1

>  <experimental-result>
0.019

$$$$
>  <mol>
Nc1nc(Nc2cc(Cl)c(-c3ccc(Cl)cc3)c(Cl)c2)n[nH]1

>  <experimental-result>
0.009

$$$$
>  <mol>
N#Cc1cc(-c2c(Cl)cc(Nc3n[nH]c(N)n3)cc2Cl)ccc1Cl

>  <experimental-result>
0.039

$$$$
>  <mol>
COc1ccc(-c2c(Cl)cc(Nc3n[nH]c(N)n3)cc2C(F)(F)F)cc1S(=O)(=O)NC(C)(C)CO

>  <experimental-result>
0.003

$$$$
>  <mol>
CC(C)S(=O)(=O)c1ccc(-c2c(Cl)cc(Nc3n[nH]c(N)n3)cc2Cl)cc1

>  <experimental-result>
0.004

$$$$
>  <mol>
CS(=O)(=O)c1ccc(-c2c(Cl)cc(Nc3n[nH]c(N)n3)cc2Cl)cc1

>  <experimental-result>
0.007

$$$$
>  <mol>
Nc1nc(Nc2cc(Cl)c(-c3ccc(S(=O)(=O)N[C@H]4CC[C@H](O)CC4)cc3)c(C(F)(F)F)c2)n[nH]1

>  <experimental-result>
0.028

$$$$
>  <mol>
Nc1nc(Nc2ccc(-c3ccccc3)c(Cl)c2)n[nH]1

>  <experimental-result>
0.333

$$$$
>  <mol>
CNC(=O)c1ccc(-c2c(Cl)cc(Nc3n[nH]c(N)n3)cc2Cl)cc1

>  <experimental-result>
0.002

$$$$
>  <mol>
CS(=O)(=O)Nc1cccc(-c2c(Cl)cc(Nc3n[nH]c(N)n3)cc2Cl)c1

>  <experimental-result>
0.006

$$$$
>  <mol>
Nc1nc(Nc2cc(Cl)c(-c3ccc(N4CCCS4(=O)=O)cc3)c(Cl)c2)n[nH]1

>  <experimental-result>
0.002

$$$$

###

Test system: Pseudotyped HCV GT1b particles (HCVpp), entry into Huh7-high CD81 cells
Assay: microbe, parasite or virus in culture
Type: cell-based, HCV GT1b Con1 strain
Conditions: Hepatitis C virus, GT1B, 72 h, read-out: HCVpp GT-1b (EC50, μM)
Where a name gives a salt, the structure may show the parent alone.
EC50 values by entry
property-measured: EC50 (µM)

>  <compound>
CS(=O)(=O)c1cccc(-c2c(Cl)cc(Nc3n[nH]c(N)n3)cc2C(F)(F)F)c1

>  <experimental-result>
0.212

$$$$
>  <compound>
CSc1ccc(-c2ccc(Nc3n[nH]c(N)n3)cc2Cl)c(F)c1

>  <experimental-result>
3.77

$$$$
>  <compound>
COc1ccc(-c2c(Cl)cc(Nc3n[nH]c(N)n3)cc2C(F)(F)F)cc1S(=O)(=O)NC1(C)CN(C(=O)OC(C)(C)C)C1

>  <experimental-result>
0.005

$$$$
>  <compound>
CC(C)(C)CCN1CCC(CS(=O)(=O)c2ccc(-c3c(Cl)cc(Nc4n[nH]c(N)n4)cc3C(F)(F)F)cc2)CC1 [Compound 57, hydrochloride]

>  <experimental-result>
0.049

$$$$
>  <compound>
Nc1nc(Nc2cc(Cl)c(-c3ccc(OCC4CNC4)cc3)c(C(F)(F)F)c2)n[nH]1 [Compound 37, hydrochloride]

>  <experimental-result>
0.107

$$$$
>  <compound>
CC(C)(C)NS(=O)(=O)c1cc(-c2c(Cl)cc(Nc3n[nH]c(N)n3)cc2C(F)(F)F)ccc1OC(F)(F)F

>  <experimental-result>
0.075

$$$$
>  <compound>
Nc1nc(Nc2cc(Cl)c(-c3ccc(S(=O)(=O)N4CCC(F)(F)C4)cc3)c(C(F)(F)F)c2)n[nH]1

>  <experimental-result>
0.02

$$$$
>  <compound>
CC(C)N1CC(C)(NS(=O)(=O)c2ccc(-c3c(Cl)cc(Nc4n[nH]c(N)n4)cc3C(F)(F)F)cc2)C1 [Compound 210, hydrochloride]

>  <experimental-result>
0.021

$$$$
>  <compound>
CN1CCN(S(=O)(=O)c2ccc(-c3c(Cl)cc(Nc4n[nH]c(N)n4)cc3C(F)(F)F)cc2)CC1

>  <experimental-result>
0.053

$$$$
>  <compound>
N#Cc1ccc(-c2c(F)cc(Nc3nc(N)n[nH]3)cc2F)cc1

>  <experimental-result>
0.696

$$$$
>  <compound>
CC1(NS(=O)(=O)c2ccc(-c3c(Cl)cc(Nc4n[nH]c(N)n4)cc3C(F)(F)F)cc2)CN(C(=O)OC(C)(C)C)C1

>  <experimental-result>
0.011

$$$$
>  <compound>
Nc1nc(Nc2cc(Cl)c(-c3ccc(S(=O)(=O)CCO)cc3)c(C(F)(F)F)c2)n[nH]1

>  <experimental-result>
0.126

$$$$
>  <compound>
Nc1nc(Nc2cc(Cl)c(-c3ccc4c(c3)NC(=O)CO4)c(C(F)(F)F)c2)n[nH]1

>  <experimental-result>
0.544

$$$$
>  <compound>
CC(C)(C)OC(=O)N1CCCC1CCOc1ccc(-c2c(Cl)cc(Nc3n[nH]c(N)n3)cc2Cl)cc1 (centres unmarked)

>  <experimental-result>
0.103

$$$$
>  <compound>
CNC(=O)c1ccc(-c2c(Cl)cc(Nc3n[nH]c(N)n3)cc2Cl)cc1

>  <experimental-result>
0.086

$$$$
>  <compound>
CCCCC(=O)Nc1ccc(-c2c(Cl)cc(Nc3n[nH]c(N)n3)cc2Cl)cc1

>  <experimental-result>
0.014

$$$$
>  <compound>
Nc1nc(Nc2cc(Cl)c(-c3ccc(S(=O)(=O)N4CCC(F)(F)CC4)cc3)c(C(F)(F)F)c2)n[nH]1

>  <experimental-result>
0.048

$$$$
>  <compound>
CS(=O)(=O)Nc1cccc(-c2c(Cl)cc(Nc3n[nH]c(N)n3)cc2C(F)(F)F)c1

>  <experimental-result>
0.149

$$$$
>  <compound>
Nc1nc(Nc2cc(Cl)c(-c3ccc(NC(=O)CN4CCOCC4)cc3)c(C(F)(F)F)c2)n[nH]1

>  <experimental-result>
0.123

$$$$
>  <compound>
COc1ccc(-c2c(Cl)cc(Nc3n[nH]c(N)n3)cc2C(F)(F)F)cc1S(=O)(=O)N1CCNCC1 [Compound 182, hydrochloride]

>  <experimental-result>
0.044

$$$$
>  <compound>
Nc1n[nH]c(Nc2cc(F)c(-c3ccc(C(F)(F)F)cc3)c(C(F)(F)F)c2)n1

>  <experimental-result>
3.54

$$$$
>  <compound>
CC(C)(NS(=O)(=O)c1ccc(-c2c(Cl)cc(Nc3n[nH]c(N)n3)cc2C(F)(F)F)cc1)C(F)(F)F

>  <experimental-result>
0.009

$$$$
>  <compound>
CS(=O)(=O)c1ccc(-c2ccc(Nc3n[nH]c(N)n3)cc2Cl)c(F)c1

>  <experimental-result>
1.33

$$$$

###

System: Pseudotyped HCV GT1a particles (HCVpp), entry into Huh7-high CD81 cells
Assay: microbe, parasite or virus in culture
Format: cell-based, HCV GT1a H77 strain
Conditions: Hepatitis C virus, 72 h, read-out: HCVpp GT-1a (EC50, μM)
Counter-ions that a name gives are not always drawn.
EC50 values by entry

>  <compound>
Nc1nc(Nc2cc(Cl)c(-c3ccc(C(F)(F)F)cc3)c(Cl)c2)n[nH]1

>  <target-or-system>
Pseudotyped HCV GT1a particles (HCVpp), entry into Huh7-high CD81 cells

>  <EC50>
0.056 µM

$$$$
>  <compound>
Nc1nc(Nc2cc(Cl)c(-c3ccc(OCC4CNC4)cc3)c(Cl)c2)n[nH]1 [Compound 32, hydrochloride]

>  <target-or-system>
Pseudotyped HCV GT1a particles (HCVpp), entry into Huh7-high CD81 cells

>  <EC50>
0.006 µM

$$$$
>  <compound>
COc1ccc(-c2c(Cl)cc(Nc3n[nH]c(N)n3)cc2C(F)(F)F)cc1S(=O)(=O)N1CCOCC1

>  <target-or-system>
Pseudotyped HCV GT1a particles (HCVpp), entry into Huh7-high CD81 cells

>  <EC50>
0.003 µM

$$$$

Cited source: patent US9693997B2
